Reference source: ChEMBL document CHEMBL3433997

ASSAYED_SYSTEM: Hexose transporter 1 (Plasmodium falciparum)
TEST_METHOD_NOTES: ST_JUDE_LEISH: Cytotoxicity at 2uM final concentration against transgenic Leishmania Mexicana promastigotes LmPfHT that are glucose transport deficient and complemented with the Plasmodium falciparum hexose transporter. Activity is measured by DNA content using SYBR green in vitro
Format: functional
# if value of inhibition reaches 5%, tag t; if it stays below, tag f

Illustrative cases are given below, each with its answer.
CCN(CC)CCCNc1nccc(N(C)c2ccc(NC(=O)Nc3cc(C(F)(F)F)ccc3F)cc2)n1
t
COc1ccc2[nH]ccc(=NN=Cc3ccncc3)c2c1
f

[Q] Exam item: decide whether the reported inhibition for COc1cc2c(Nc3ccc(NC(=O)c4ccccc4)cc3)ncnc2cc1OCCCN1CCOCC1 is at least 5%.
[A] f

[Q] Please check the record COc1ccc2ncc(F)c(CCN3CCC(NCc4ccc5c(c4)CCO5)CC3)c2n1 and state if its inhibition is at or above 5%.
[A] t

[Q] Does the molecule O=C(Nc1ccc(Cn2ncc(N3CCCNCC3)c(Cl)c2=O)cc1)Nc1cc(C(F)(F)F)cc(C(F)(F)F)c1 have recorded inhibition that is 5% or more?
[A] f

[Q] Is it the case that COc1cc(N(Cc2ccc(F)cc2)C(=O)c2ccc(-c3ccccc3)cc2)ccc1OCCN1CCCC1 has inhibition reaching or exceeding 5%?
[A] t

[Q] Would you say Fc1ccc2[nH]c(-c3ccccc3)nc2c1CN1CCC(N2CCCC2)CC1 shows inhibition at minimum 5%?
[A] f

[Q] Evaluate CCOC(=O)c1ccc(NC(=O)Nc2cccc(-c3ccc(-c4nc5cc(F)ccc5[nH]4)cc3)c2)cc1 : inhibition at minimum 5%?
[A] f
